Tested system: 5-LOX (Homo sapiens)
Assay summary: cell-free 5-LOX activity
Assay type: biochemical
Condition notes: read-out: IC50, human recombinant 5-LOX; arachidonic acid 20 μmol/L
pIC50: −log10 of the molar value.
Recorded metric: pIC50

1 = COc1cc(O)ccc1CCC(c1ccc(O)cc1)c1c(O)c(C)c2c(c1O)C(=O)CC(c1ccc(O)cc1)O2 (centres unmarked)
2 = COc1ccc(C(CCc2ccc(O)cc2OC)c2cc3c(c(C)c2O)OC(c2ccc(O)cc2)CC3)cc1 (centres unmarked)
Ask: For the pair 1 and 2 , which member has the lower pIC50 number? Give the label under which the chosen entry appears.
Result: 1
(1: 6.05, 2: 6.52)

====

Tested system: 5-LOX (Homo sapiens, UniProt P09917)
Sequence (P09917 whole entry): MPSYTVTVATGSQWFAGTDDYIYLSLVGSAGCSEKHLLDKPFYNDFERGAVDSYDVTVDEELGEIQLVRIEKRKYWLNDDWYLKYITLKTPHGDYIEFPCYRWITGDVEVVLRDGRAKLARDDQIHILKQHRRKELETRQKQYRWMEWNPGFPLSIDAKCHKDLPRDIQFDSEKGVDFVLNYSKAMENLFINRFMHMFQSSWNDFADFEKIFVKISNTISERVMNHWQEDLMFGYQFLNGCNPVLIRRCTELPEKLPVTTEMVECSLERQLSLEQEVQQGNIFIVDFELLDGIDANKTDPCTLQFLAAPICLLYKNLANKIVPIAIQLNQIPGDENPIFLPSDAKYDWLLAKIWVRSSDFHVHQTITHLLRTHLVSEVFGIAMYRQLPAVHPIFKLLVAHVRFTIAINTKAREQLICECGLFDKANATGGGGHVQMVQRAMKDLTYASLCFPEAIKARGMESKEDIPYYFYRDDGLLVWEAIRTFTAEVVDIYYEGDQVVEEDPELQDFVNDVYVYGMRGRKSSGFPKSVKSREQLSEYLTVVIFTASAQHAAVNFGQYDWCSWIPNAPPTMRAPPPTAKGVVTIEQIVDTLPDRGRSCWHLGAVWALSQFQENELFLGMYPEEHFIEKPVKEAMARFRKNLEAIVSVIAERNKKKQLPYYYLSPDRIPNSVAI
Assay summary: 5-LOX product formation in activated PMNL
Format: cell-based
Condition notes: read-out: IC50, 5-LOX product formation, activated PMNL; A23187 plus arachidonic acid
Recorded metric: IC50 (nM)

P = COc1cc(O)ccc1CCC(c1ccc(O)cc1)c1c(O)c(C)c2c(c1O)C(=O)CC(c1ccc(O)cc1)O2 (centres unmarked)
Q = COc1ccc(C(CCc2ccc(O)cc2OC)c2cc3c(c(C)c2O)OC(c2ccc(O)cc2)CC3)cc1 (centres unmarked)
Ask: Parameter metric = IC50. Return the lower-valued option from P and Q . Lab note: record the label of whichever item you select.
Result: P
(P: 460 nM, Q: 800 nM)
